Provide the recorded IC50 for the entries that follow.
- system: recombinant human ULK1 protein (1-649) (Homo sapiens, UniProt O75385)
- Construct: recombinant human ULK1 protein (1-649, SignalChem #U01-11G); purchased SignalChem U01-11G
- Sequence (O75385 1-649): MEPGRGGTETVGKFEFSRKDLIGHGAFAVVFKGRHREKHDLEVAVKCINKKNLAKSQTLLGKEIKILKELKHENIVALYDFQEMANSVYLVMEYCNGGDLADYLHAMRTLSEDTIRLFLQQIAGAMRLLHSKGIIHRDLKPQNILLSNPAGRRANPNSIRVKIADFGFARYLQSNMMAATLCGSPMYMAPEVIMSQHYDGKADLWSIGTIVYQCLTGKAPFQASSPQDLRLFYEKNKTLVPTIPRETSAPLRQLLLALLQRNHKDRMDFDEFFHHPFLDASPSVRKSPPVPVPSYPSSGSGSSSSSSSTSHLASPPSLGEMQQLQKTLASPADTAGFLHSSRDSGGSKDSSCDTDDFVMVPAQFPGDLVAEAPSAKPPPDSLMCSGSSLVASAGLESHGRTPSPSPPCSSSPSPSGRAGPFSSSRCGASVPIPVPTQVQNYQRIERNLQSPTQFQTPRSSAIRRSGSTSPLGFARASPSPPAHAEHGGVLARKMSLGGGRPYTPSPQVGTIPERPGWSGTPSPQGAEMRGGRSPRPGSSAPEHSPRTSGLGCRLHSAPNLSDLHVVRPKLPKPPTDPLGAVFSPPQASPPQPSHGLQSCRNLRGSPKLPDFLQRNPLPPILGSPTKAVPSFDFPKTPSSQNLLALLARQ
- measurement notes: ULK1 inhibition assay (ADP-Glo)
- Type: biochemical
- details: 2 ug/mL ULK1, 80 ug/mL myelin basic protein, 25 uM ATP, assessed after one hour

Tell me the measured IC50 of CNC(=O)c1ccc2cc1Nc1nc(ncc1C(F)(F)F)Nc1ccc(OC)c(c1)OCCCCCO2 [Compound 23] , please. > 20 nM

Tell me the measured IC50 of C=CCCOc1ccc(Nc2nc(Nc3ccc(OC)c(OCC=C)c3)ncc2C(F)(F)F)c(C(=O)NC)c1 [Compound 8] , please. < 20 nM

Tell me the measured IC50 of CNC(=O)c1cc2ccc1Nc1nc(ncc1C(F)(F)F)Nc1ccc(OC)c(c1)OCCCCCCO2 [Compound 20] , please. < 20 nM

Tell me the measured IC50 of CNC(=O)c1ccc2cc1Nc1nc(ncc1C(F)(F)F)Nc1ccc(OC)c(c1)OC/C=C\CCO2 [Compound 21] , please. > 20 nM

Tell me the measured IC50 of CNC(=O)c1cc2ccc1Nc1nc(ncc1C(F)(F)F)Nc1ccc(OC)c(c1)OCCCCCO2 [Compound 10] , please. < 20 nM

Tell me the measured IC50 of C=CCCCOc1ccc(Nc2nc(Nc3ccc(OCC=C)c(OC)c3)ncc2C(F)(F)F)c(C(=O)NC)c1 [Compound 5] , please. > 20 nM

Tell me the measured IC50 of CNC(=O)c1ccc2cc1Nc1nc(ncc1C(F)(F)F)Nc1ccc(OC)c(c1)OC/C=C/CCCO2 [Compound 13] , please. > 20 nM

Tell me the measured IC50 of CNC(=O)c1ccc2cc1Nc1nc(ncc1C(F)(F)F)Nc1ccc(c(OC)c1)OC/C=C\CCCO2 [Compound 16] , please. > 20 nM

Tell me the measured IC50 of CNC(=O)c1ccc2cc1Nc1nc(ncc1C(F)(F)F)Nc1ccc(OC)c(c1)OC/C=C/CCO2 [Compound 22] , please. > 20 nM

Tell me the measured IC50 of CNC(=O)c1cc2ccc1Nc1nc(ncc1C(F)(F)F)Nc1ccc(OC)c(c1)OC/C=C\CCCO2 [Compound 19] , please. < 20 nM

Tell me the measured IC50 of C=CCCOc1ccc(Nc2nc(Nc3ccc(OCC=C)c(OC)c3)ncc2Br)c(C(=O)NC)c1 [Compound 11] , please. > 20 nM

Tell me the measured IC50 of CNC(=O)c1cc2ccc1Nc1nc(ncc1C(F)(F)F)Nc1ccc(OC)c(c1)OC/C=C/CCCO2 [Compound 18] , please. < 20 nM

Tell me the measured IC50 of C=CCCOc1ccc(Nc2nc(Nc3ccc(OCC=C)c(OC)c3)ncc2C(F)(F)F)c(C(=O)NC)c1 [Compound 2] , please. > 20 nM

Tell me the measured IC50 of CNC(=O)c1cc2ccc1Nc1nc(ncc1C(F)(F)F)Nc1ccc(c(OC)c1)OC/C=C\CCO2 [Compound 4] , please. > 20 nM

Tell me the measured IC50 of CNC(=O)c1ccc2cc1Nc1nc(ncc1C(F)(F)F)Nc1ccc(c(OC)c1)OCCCCCCO2 [Compound 17] , please. > 20 nM

Tell me the measured IC50 of CNC(=O)c1ccc2cc1Nc1nc(ncc1C(F)(F)F)Nc1ccc(c(OC)c1)OC/C=C/CCCO2 [Compound 15] , please. > 20 nM

Tell me the measured IC50 of CNC(=O)c1cc2ccc1Nc1nc(ncc1C(F)(F)F)Nc1ccc(c(OC)c1)OC/C=C/CCCO2 [Compound 6] , please. < 20 nM

Tell me the measured IC50 of CNC(=O)c1ccc2cc1OCCCCCOc1ccc(cc1OC)Nc1ncc(C(F)(F)F)c(n1)N2 [Compound 25] , please. > 20 nM

Tell me the measured IC50 of CNC(=O)c1cc2ccc1Nc1nc(ncc1C(F)(F)F)Nc1ccc(OC)c(c1)OC/C=C/CCO2 [Compound 9] , please. < 20 nM

Tell me the measured IC50 of CNC(=O)c1ccc2cc1Nc1nc(ncc1C(F)(F)F)Nc1ccc(c(OC)c1)OC/C=C/CCO2 [Compound 24] , please. > 20 nM

Tell me the measured IC50 of CNC(=O)c1ccc2cc1Nc1nc(ncc1C(F)(F)F)Nc1ccc(OC)c(c1)OCCCCCCO2 [Compound 14] , please. > 20 nM

Tell me the measured IC50 of CNC(=O)c1ccc2cc1Nc1nc(ncc1C(F)(F)F)Nc1ccc(OC)c(c1)OC/C=C\CCCO2 [Compound 12] , please. > 20 nM

Tell me the measured IC50 of CNC(=O)c1cc2ccc1Nc1nc(ncc1C(F)(F)F)Nc1ccc(c(OC)c1)OCCCCCO2 [Compound 1] , please. < 20 nM

Tell me the measured IC50 of CNC(=O)c1cc2ccc1Nc1nc(ncc1C(F)(F)F)Nc1ccc(c(OC)c1)OC/C=C/CCO2 [Compound 3] , please. > 20 nM

Tell me the measured IC50 of CNC(=O)c1cc2ccc1Nc1nc(ncc1C(F)(F)F)Nc1ccc(c(OC)c1)OCCCCCCO2 [Compound 7] , please. < 20 nM

----------
- system: NanoLuc-ULK1 fusion in HEK293T cells (Homo sapiens)
- Construct: host or cells: HEK293T
- Sequence (O75385 1-1050): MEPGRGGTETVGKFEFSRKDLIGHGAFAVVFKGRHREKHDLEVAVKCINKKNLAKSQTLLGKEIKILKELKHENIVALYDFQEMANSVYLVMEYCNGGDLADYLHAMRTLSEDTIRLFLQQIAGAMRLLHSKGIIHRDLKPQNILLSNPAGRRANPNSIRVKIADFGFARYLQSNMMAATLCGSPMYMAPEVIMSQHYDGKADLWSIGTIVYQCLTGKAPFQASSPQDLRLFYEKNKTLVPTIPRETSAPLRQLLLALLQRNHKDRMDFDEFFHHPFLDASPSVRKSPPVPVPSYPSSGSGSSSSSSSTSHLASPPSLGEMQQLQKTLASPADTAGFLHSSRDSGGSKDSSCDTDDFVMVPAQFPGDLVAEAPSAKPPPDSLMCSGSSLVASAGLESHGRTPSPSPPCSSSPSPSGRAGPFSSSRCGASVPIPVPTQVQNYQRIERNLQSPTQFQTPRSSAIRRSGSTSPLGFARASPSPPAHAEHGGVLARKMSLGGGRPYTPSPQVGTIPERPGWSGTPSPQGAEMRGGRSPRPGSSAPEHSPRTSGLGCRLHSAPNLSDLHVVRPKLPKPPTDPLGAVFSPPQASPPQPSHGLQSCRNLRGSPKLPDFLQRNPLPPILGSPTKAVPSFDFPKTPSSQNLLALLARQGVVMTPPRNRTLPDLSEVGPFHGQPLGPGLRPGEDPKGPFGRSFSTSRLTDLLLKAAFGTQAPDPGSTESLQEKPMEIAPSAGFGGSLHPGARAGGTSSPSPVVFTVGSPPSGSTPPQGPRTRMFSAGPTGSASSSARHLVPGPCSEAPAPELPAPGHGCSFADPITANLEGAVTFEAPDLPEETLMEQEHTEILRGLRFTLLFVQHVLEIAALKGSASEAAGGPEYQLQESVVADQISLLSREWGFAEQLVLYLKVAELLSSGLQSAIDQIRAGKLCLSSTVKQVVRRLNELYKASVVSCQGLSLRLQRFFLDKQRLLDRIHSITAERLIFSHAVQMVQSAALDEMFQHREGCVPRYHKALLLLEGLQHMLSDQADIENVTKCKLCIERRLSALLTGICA
- measurement notes: ULK1 NanoBRET assay
- Assay type: cell-based
- details: HEK293T transfected with NanoLuc-ULK1 Fusion Vector, Tracer K-5, 2 h incubation
measurement type: IC50

Tell me the measured IC50 of C=CCCCOc1ccc(Nc2nc(Nc3ccc(OCC=C)c(OC)c3)ncc2C(F)(F)F)c(C(=O)NC)c1 [Compound 5] , please. > 1000 nM

Tell me the measured IC50 of CNC(=O)c1cc2ccc1Nc1nc(ncc1C(F)(F)F)Nc1ccc(c(OC)c1)OC/C=C/CCO2 [Compound 3] , please. < 1000 nM

Tell me the measured IC50 of CNC(=O)c1cc2ccc1Nc1nc(ncc1C(F)(F)F)Nc1ccc(OC)c(c1)OC/C=C\CCCO2 [Compound 19] , please. < 1000 nM

Tell me the measured IC50 of CNC(=O)c1ccc2cc1Nc1nc(ncc1C(F)(F)F)Nc1ccc(OC)c(c1)OC/C=C\CCO2 [Compound 21] , please. > 1000 nM

Tell me the measured IC50 of CNC(=O)c1ccc2cc1Nc1nc(ncc1C(F)(F)F)Nc1ccc(OC)c(c1)OCCCCCO2 [Compound 23] , please. > 1000 nM

Tell me the measured IC50 of CNC(=O)c1ccc2cc1Nc1nc(ncc1C(F)(F)F)Nc1ccc(OC)c(c1)OC/C=C/CCCO2 [Compound 13] , please. > 1000 nM

Tell me the measured IC50 of CNC(=O)c1ccc2cc1Nc1nc(ncc1C(F)(F)F)Nc1ccc(OC)c(c1)OCCCCCCO2 [Compound 14] , please. > 1000 nM

Tell me the measured IC50 of CNC(=O)c1cc2ccc1Nc1nc(ncc1C(F)(F)F)Nc1ccc(OC)c(c1)OC/C=C/CCO2 [Compound 9] , please. < 1000 nM

Tell me the measured IC50 of CNC(=O)c1ccc2cc1Nc1nc(ncc1C(F)(F)F)Nc1ccc(OC)c(c1)OC/C=C\CCCO2 [Compound 12] , please. > 1000 nM

Tell me the measured IC50 of CNC(=O)c1cc2ccc1Nc1nc(ncc1C(F)(F)F)Nc1ccc(OC)c(c1)OCCCCCCO2 [Compound 20] , please. > 1000 nM

Tell me the measured IC50 of CNC(=O)c1ccc2cc1Nc1nc(ncc1C(F)(F)F)Nc1ccc(c(OC)c1)OC/C=C/CCCO2 [Compound 15] , please. > 1000 nM

Tell me the measured IC50 of CNC(=O)c1ccc2cc1Nc1nc(ncc1C(F)(F)F)Nc1ccc(c(OC)c1)OC/C=C/CCO2 [Compound 24] , please. > 1000 nM

Tell me the measured IC50 of CNC(=O)c1cc2ccc1Nc1nc(ncc1C(F)(F)F)Nc1ccc(c(OC)c1)OC/C=C/CCCO2 [Compound 6] , please. < 1000 nM

Tell me the measured IC50 of CNC(=O)c1cc2ccc1Nc1nc(ncc1C(F)(F)F)Nc1ccc(OC)c(c1)OCCCCCO2 [Compound 10] , please. > 1000 nM

Tell me the measured IC50 of CNC(=O)c1ccc2cc1Nc1nc(ncc1C(F)(F)F)Nc1ccc(c(OC)c1)OC/C=C\CCCO2 [Compound 16] , please. > 1000 nM

Tell me the measured IC50 of CNC(=O)c1ccc2cc1OCCCCCOc1ccc(cc1OC)Nc1ncc(C(F)(F)F)c(n1)N2 [Compound 25] , please. > 1000 nM

Tell me the measured IC50 of CNC(=O)c1ccc2cc1Nc1nc(ncc1C(F)(F)F)Nc1ccc(OC)c(c1)OC/C=C/CCO2 [Compound 22] , please. > 1000 nM

Tell me the measured IC50 of CNC(=O)c1ccc2cc1Nc1nc(ncc1C(F)(F)F)Nc1ccc(c(OC)c1)OCCCCCCO2 [Compound 17] , please. > 1000 nM

Tell me the measured IC50 of CNC(=O)c1cc2ccc1Nc1nc(ncc1C(F)(F)F)Nc1ccc(c(OC)c1)OC/C=C\CCO2 [Compound 4] , please. < 1000 nM

Tell me the measured IC50 of CNC(=O)c1cc2ccc1Nc1nc(ncc1C(F)(F)F)Nc1ccc(OC)c(c1)OC/C=C/CCCO2 [Compound 18] , please. > 1000 nM

Tell me the measured IC50 of CNC(=O)c1cc2ccc1Nc1nc(ncc1C(F)(F)F)Nc1ccc(c(OC)c1)OCCCCCO2 [Compound 1] , please. > 1000 nM
